- Assay comment: Induction of nitrite release at 10^-4 M after 1 hr by Griess method in presence of L-cysteine
- Assay type: physicochemical
- Experimental parameters: 100 µM
Overview of recorded Activity for various molecules
State the result as a value with its unit after it.

O=C1c2ccccc2C(=O)N1CCOc1c(S(=O)(=O)c2ccccc2)no[n+]1[O-] | 9.5%
O=C(OCc1c(-c2ccccc2)no[n+]1[O-])c1ccccc1N1C(=O)c2ccccc2C1=O | 9.7%
O=C(OCc1c(-c2ccccc2)no[n+]1[O-])c1cccc(N2C(=O)c3ccccc3C2=O)c1 | 13.2%
O=C(OCc1c(-c2ccccc2)no[n+]1[O-])c1cc(N2C(=O)c3ccccc3C2=O)ccc1O | 10.6%
O=C1c2ccccc2C(=O)N1c1ccc(S(=O)(=O)NCCOc2no[n+]([O-])c2S(=O)(=O)c2ccccc2)cc1 | 28.1%
O=C1c2ccccc2C(=O)N1Cc1c(-c2ccccc2)no[n+]1[O-] | 14.8%
O=[N+]([O-])O[C@H]1CO[C@H]2[C@@H]1OC[C@H]2O[N+](=O)[O-] [ISOSORBIDE DINITRATE] | 11.6%

Please fill in: Activity reported for `O=C(NCCOc1no[n+]([O-])c1S(=O)(=O)c1ccccc1)c1ccc(N2C(=O)c3ccccc3C2=O)cc1` = 28.2%

Attribution: ChEMBL document CHEMBL2169874
